# Assay type: physicochemical
No end group written: not given here.
Response field class: enum, chosen by comparing Maximum Solubility against b0: < 50 µM; b1: ≥ 50 µM and < 200 µM; b2: ≥ 200 µM

| substance | labelClass |
| --- | --- |
| LTIQIQNHFVDE [Ras 19-31(1)] | b2 |
| LTIQLIQNHFVDE [Ras 19-31] | b2 |
| EELTIQLIQNHFVDEYD-NH2 [Ras 19-33(3)] | b2 |
| TIQLIQNHFVDEY [Ras 20-32] | b1 |
| IQLIQNHFVDEY [Ras 21-32] | b1 |
| EYDPTIEDSYRKQ [Ras 31-43] | b2 |
| MRTRVVSGFVFLRLIGPAILNPR [GAP 888-910(Gly903)] | b2 |
| SALTIQLIQNHFVDEYDPTIE [Ras 17-37] | b0 |
| LTIQLIQNHFVDEY [Ras 19-32] | b0 |
| LTIQLIQNHFVDEYD [Ras 19-33] | b0 |
| SALTIQLIQNHFV [Ras 17-29] | b0 |
| NHFVDEY [Ras 26-32] | b2 |
| LIQNHFVDEYDPTIE [Ras 23-37] | b2 |
